Target: pm5, modified CCR8 related peptide (human, sulfated tyrosines at Y15 and Y17)
Sequence (peptide, as listed by the source): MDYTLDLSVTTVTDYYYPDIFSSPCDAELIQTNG
Assay: ELISA on coated CCR8 peptide (500 ng/mL), OD [cont.]
Description: The specific binding properties of antibodies were evaluated by ELISA with coated CCR8 related peptides (500 ng/mL) in carbonate/bicarbonate buffer. Different peptides were used as described in Table 1 (see Example 1). Each anti-CCR8 mAb was tested at 1 μg/mL then diluted at 1/10. […] Then the optical density (OD) was determined by using a multiplate reader (Tecan, Lyon, France) and correlated with mAb reactivity on the panel of coated peptides.
measured-quantity: binding result

Answered examples (7):
- anti-CCR8 mAb 2-5 (antibody, V domains shown) VH: EVQLQQSGPELVKPGASVKISCKTSGYTFTEYTIHWVKQSHGKSLEWVGGINPDNGNTRYDQKFKGKATLTIDKSSSTAYMELRSLTSEDSAVYYCARVARSSGSGPYAMDYWGQGTSVTVSS VL: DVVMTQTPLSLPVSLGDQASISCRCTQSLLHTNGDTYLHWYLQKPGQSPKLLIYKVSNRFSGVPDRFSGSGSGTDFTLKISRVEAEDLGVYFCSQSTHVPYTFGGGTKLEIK: binds
- anti-CCR8 mAb 2-3 (antibody, V domains shown) VH: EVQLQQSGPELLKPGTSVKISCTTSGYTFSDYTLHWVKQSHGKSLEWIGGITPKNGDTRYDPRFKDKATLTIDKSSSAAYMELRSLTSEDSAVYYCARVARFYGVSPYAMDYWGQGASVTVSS VL: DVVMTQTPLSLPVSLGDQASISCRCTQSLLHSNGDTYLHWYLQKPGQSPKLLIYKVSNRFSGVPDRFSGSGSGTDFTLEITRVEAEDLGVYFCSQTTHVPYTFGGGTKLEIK: binds
- humanized anti-CCR8 mAb 2-14 (antibody, human IgG1, kappa, V domains shown, Humanized, human IgG1 / kappa) VH: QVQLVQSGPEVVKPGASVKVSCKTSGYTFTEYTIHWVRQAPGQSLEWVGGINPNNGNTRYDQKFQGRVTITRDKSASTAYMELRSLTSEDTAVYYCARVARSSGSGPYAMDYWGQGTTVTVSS VL: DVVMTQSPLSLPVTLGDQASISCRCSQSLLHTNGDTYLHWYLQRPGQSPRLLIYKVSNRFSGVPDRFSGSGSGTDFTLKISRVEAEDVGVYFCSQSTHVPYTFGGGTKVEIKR: binds
- anti-CCR8 mAb 2-2 (antibody, V domains shown) VH: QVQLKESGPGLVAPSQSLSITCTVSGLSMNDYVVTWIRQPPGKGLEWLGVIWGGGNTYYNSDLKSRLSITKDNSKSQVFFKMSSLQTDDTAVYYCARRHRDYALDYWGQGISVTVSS VL: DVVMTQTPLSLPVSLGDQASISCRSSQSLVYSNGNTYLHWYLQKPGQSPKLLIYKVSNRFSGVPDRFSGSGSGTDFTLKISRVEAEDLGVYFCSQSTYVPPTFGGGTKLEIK: binds
- anti-CCR8 mAb 2-1 (antibody, V domains shown) VH: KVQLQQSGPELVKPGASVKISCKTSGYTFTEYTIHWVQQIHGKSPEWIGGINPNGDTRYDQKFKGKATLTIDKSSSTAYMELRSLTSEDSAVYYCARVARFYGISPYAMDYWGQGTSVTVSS VL: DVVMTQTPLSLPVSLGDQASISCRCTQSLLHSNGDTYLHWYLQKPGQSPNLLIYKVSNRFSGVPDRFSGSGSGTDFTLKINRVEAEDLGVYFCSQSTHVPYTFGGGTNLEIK: binds
- anti-CCR8 mAb 2-4 (antibody, V domains shown) VH: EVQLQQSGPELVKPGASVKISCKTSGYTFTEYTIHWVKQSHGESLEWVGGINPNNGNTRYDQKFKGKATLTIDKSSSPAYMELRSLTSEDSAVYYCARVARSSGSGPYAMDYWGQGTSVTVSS VL: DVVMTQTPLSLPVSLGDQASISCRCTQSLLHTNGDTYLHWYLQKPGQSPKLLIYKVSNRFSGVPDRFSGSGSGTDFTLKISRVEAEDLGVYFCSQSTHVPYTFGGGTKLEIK: binds
- anti-CCR8 mAb 2-8 (antibody, V domains shown) VH: QVQLKESGPGLVAPSQSLSITCTVSGFSLTDYGVSWIRQPPGKGPEWLGVIWGGGNTYYNSVLKSRLSISNDNSKSQVFLRMNSLQTADTAIYYCARPRRDYYALDYWGQGTSVTVAS VL: DVVMTQTPLSLPVSLGDQASISCRSSQSLVYTNGNTFLHWYLQKPGQSPKLLIYKVSNRFSGVPDRFSGSGSGTDFTLKISRVEAEDLGVYFCSQSTHVPPTFGGGTKLEIK: binds

Now for the binder whose binding result we want.
According to the records, this binder humanized anti-CCR8 mAb 2-15 (antibody, human IgG1, kappa, V domains shown, Humanized, human IgG1 / kappa) VH: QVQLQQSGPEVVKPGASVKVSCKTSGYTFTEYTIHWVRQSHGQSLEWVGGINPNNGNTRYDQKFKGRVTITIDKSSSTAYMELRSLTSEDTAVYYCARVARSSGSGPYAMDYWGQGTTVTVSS VL: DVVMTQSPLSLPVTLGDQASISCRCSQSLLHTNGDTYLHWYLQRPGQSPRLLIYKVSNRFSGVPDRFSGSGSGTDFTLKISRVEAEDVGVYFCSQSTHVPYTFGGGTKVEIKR displays binding result of binds
